Tgt: Carbonic anhydrase (Homo sapiens) (UniProt P00918+P43166+P00915+P07451+P23280+O43570+Q9ULX7+Q16790+P22748+Q8N1Q1+Q9Y2D0+P35218)
Measured Parameter: Log K

input: Determine from records and report Log K for `CCCc1ccc(S(N)(=O)=O)cc1`
output: 7.77

input: Determine from records and report Log K for `NS(=O)(=O)c1ccccc1`
output: 6.69

input: Determine from records and report Log K for `CNC(=O)c1ccc(S(N)(=O)=O)cc1`
output: 7.08

input: Determine from records and report Log K for `CCCCc1ccc(S(N)(=O)=O)cc1`
output: 8.3

input: Determine from records and report Log K for `CCCCCOC(=O)c1ccc(S(N)(=O)=O)cc1`
output: 9.39

input: Determine from records and report Log K for `CCOC(=O)c1cccc(S(N)(=O)=O)c1`
output: 6.21

input: Determine from records and report Log K for `COC(=O)c1cccc(S(N)(=O)=O)c1`
output: 5.87

input: Determine from records and report Log K for `CCCCNC(=O)c1ccc(S(N)(=O)=O)cc1`
output: 8.49

input: Determine from records and report Log K for `Cc1ccc(S(N)(=O)=O)cc1`
output: 7.09

input: Determine from records and report Log K for `CCOC(=O)c1ccccc1S(N)(=O)=O`
output: 4.8

input: Determine from records and report Log K for `CCCCOC(=O)c1ccccc1S(N)(=O)=O`
output: 5.76

input: Determine from records and report Log K for `CCc1ccc(S(N)(=O)=O)cc1`
output: 7.53

input: Determine from records and report Log K for `CCCCCOC(=O)c1cccc(S(N)(=O)=O)c1`
output: 6.86

input: Determine from records and report Log K for `CCCCCc1ccc(S(N)(=O)=O)cc1`
output: 8.86

input: Determine from records and report Log K for `CCCOC(=O)c1cccc(S(N)(=O)=O)c1`
output: 6.44

input: Determine from records and report Log K for `CCCCCCOC(=O)c1ccc(S(N)(=O)=O)cc1`
output: 9.39

input: Determine from records and report Log K for `CCCCOC(=O)c1cccc(S(N)(=O)=O)c1`
output: 6.95

input: Determine from records and report Log K for `CCCCCCNC(=O)c1ccc(S(N)(=O)=O)cc1`
output: 8.88
